Source: ChEMBL document CHEMBL4627399

molecular target: UniProt:P35372; assay: biochemical; assay type: cell-based, CHO
pKi: −log10 of the molar value.
I would appreciate it if you labelled entries True when pKi is 7 or higher, otherwise False.

smiles-representation	assigned-label
Cc1cc(-c2cnc3c(c2)C[C@@]2(OCCCc4ccccc4)[C@H]4Cc5ccc(O)c6c5[C@@]2(CCN4CC2CC2)[C@H]3O6)ccn1	True
Cc1cccc(C)c1-c1cnc2c(c1)C[C@@]1(OCCCc3ccccc3)[C@H]3Cc4ccc(O)c5c4[C@@]1(CCN3CC1CC1)[C@H]2O5	False
Oc1cccc(-c2cnc3c(c2)C[C@@]2(OCCCc4ccccc4)[C@H]4Cc5ccc(O)c6c5[C@@]2(CCN4CC2CC2)[C@H]3O6)c1	True

* * *

Recorded pKi values for a group of compounds are listed next.
molecular target: Kappa-type opioid receptor (Homo sapiens, UniProt P41145)
pKi: −log10 of the molar value.
measured-quantity: pKi

smiles-representation	target-under-test	measured-quantity	qualifying-sign	reading
CN(C)Cc1ccccc1-c1cnc2c(c1)C[C@@]1(OCCCc3ccccc3)[C@H]3Cc4ccc(O)c5c4[C@@]1(CCN3CC1CC1)[C@H]2O5	Kappa-type opioid receptor (Homo sapiens, UniProt P41145)	pKi	=	7.64
Cc1nnc(-c2cnc3c(c2)C[C@@]2(OCCCc4ccccc4)[C@H]4Cc5ccc(O)c6c5[C@@]2(CCN4CC2CC2)[C@H]3O6)o1	Kappa-type opioid receptor (Homo sapiens, UniProt P41145)	pKi	=	7.83
Cn1cc(-c2cnc3c(c2)C[C@@]2(OCCCc4ccccc4)[C@H]4Cc5ccc(O)c6c5[C@@]2(CCN4CC2CC2)[C@H]3O6)cn1	Kappa-type opioid receptor (Homo sapiens, UniProt P41145)	pKi	=	8.08
COc1ccccc1-c1cnc2c(c1)C[C@@]1(OCCCc3ccccc3)[C@H]3Cc4ccc(O)c5c4[C@@]1(CCN3CC1CC1)[C@H]2O5	Kappa-type opioid receptor (Homo sapiens, UniProt P41145)	pKi	=	6.90
COc1ccc(-c2cnc3c(c2)C[C@@]2(OCCCc4ccccc4)[C@H]4Cc5ccc(O)c6c5[C@@]2(CCN4CC2CC2)[C@H]3O6)cc1	Kappa-type opioid receptor (Homo sapiens, UniProt P41145)	pKi	=	6.85
CC(=O)Nc1ccc(-c2cnc3c(c2)C[C@@]2(OCCCc4ccccc4)[C@H]4Cc5ccc(O)c6c5[C@@]2(CCN4CC2CC2)[C@H]3O6)cc1	Kappa-type opioid receptor (Homo sapiens, UniProt P41145)	pKi	=	7.82
Oc1ccc2c3c1O[C@H]1c4ncc(-c5ccc(Br)cc5)cc4C[C@@]4(OCCCc5ccccc5)[C@@H](C2)N(CC2CC2)CC[C@]314	Kappa-type opioid receptor (Homo sapiens, UniProt P41145)	pKi	=	7.12
Oc1ccc2c3c1O[C@H]1c4ncc(-c5ccc(Cl)cc5)cc4C[C@@]4(OCc5ccc6ccccc6n5)[C@@H](C2)N(CC2CC2)CC[C@]314	Kappa-type opioid receptor (Homo sapiens, UniProt P41145)	pKi	=	7.51
Cc1cc(F)ccc1-c1cnc2c(c1)C[C@@]1(OCCCc3ccccc3)[C@H]3Cc4ccc(O)c5c4[C@@]1(CCN3CC1CC1)[C@H]2O5	Kappa-type opioid receptor (Homo sapiens, UniProt P41145)	pKi	=	6.89
Cc1cccc(-c2cnc3c(c2)C[C@@]2(OCCCc4ccccc4)[C@H]4Cc5ccc(O)c6c5[C@@]2(CCN4CC2CC2)[C@H]3O6)c1	Kappa-type opioid receptor (Homo sapiens, UniProt P41145)	pKi	=	7.75
Oc1ccc2c3c1O[C@H]1c4ncc(-c5ccc(F)c(F)c5)cc4C[C@@]4(OCCCc5ccccc5)[C@@H](C2)N(CC2CC2)CC[C@]314	Kappa-type opioid receptor (Homo sapiens, UniProt P41145)	pKi	=	7.15
Oc1ccc2c3c1O[C@H]1c4ncc(-c5ccc(Cl)cc5)cc4C[C@@]4(OCCOc5ccccc5)[C@@H](C2)N(CC2CC2)CC[C@]314	Kappa-type opioid receptor (Homo sapiens, UniProt P41145)	pKi	=	7.67
Oc1ccc2c3c1O[C@H]1c4ncc(-c5ccccc5C5CC5)cc4C[C@@]4(OCCCc5ccccc5)[C@@H](C2)N(CC2CC2)CC[C@]314	Kappa-type opioid receptor (Homo sapiens, UniProt P41145)	pKi	=	6.76
CN(C)c1ccc(-c2cnc3c(c2)C[C@@]2(OCCCc4ccccc4)[C@H]4Cc5ccc(O)c6c5[C@@]2(CCN4CC2CC2)[C@H]3O6)cc1	Kappa-type opioid receptor (Homo sapiens, UniProt P41145)	pKi	=	8.21
Oc1ccc2c3c1O[C@H]1c4ncc(-c5ccccn5)cc4C[C@@]4(OCCCc5ccccc5)[C@@H](C2)N(CC2CC2)CC[C@]314	Kappa-type opioid receptor (Homo sapiens, UniProt P41145)	pKi	=	7.72
CC(=O)Nc1cccc(-c2cnc3c(c2)C[C@@]2(OCCCc4ccccc4)[C@H]4Cc5ccc(O)c6c5[C@@]2(CCN4CC2CC2)[C@H]3O6)c1	Kappa-type opioid receptor (Homo sapiens, UniProt P41145)	pKi	=	6.22
Oc1ccc2c3c1O[C@H]1c4ncc(-c5cncnc5)cc4C[C@@]4(OCCCc5ccccc5)[C@@H](C2)N(CC2CC2)CC[C@]314	Kappa-type opioid receptor (Homo sapiens, UniProt P41145)	pKi	=	7.61
Oc1ccc2c3c1O[C@H]1c4ncc(-c5cnccn5)cc4C[C@@]4(OCCCc5ccccc5)[C@@H](C2)N(CC2CC2)CC[C@]314	Kappa-type opioid receptor (Homo sapiens, UniProt P41145)	pKi	=	7.70
Oc1ccc2c3c1O[C@H]1c4ncc(-c5cn[nH]c5)cc4C[C@@]4(OCCCc5ccccc5)[C@@H](C2)N(CC2CC2)CC[C@]314	Kappa-type opioid receptor (Homo sapiens, UniProt P41145)	pKi	=	7.53
CN(C)c1cccc(-c2cnc3c(c2)C[C@@]2(OCCCc4ccccc4)[C@H]4Cc5ccc(O)c6c5[C@@]2(CCN4CC2CC2)[C@H]3O6)c1	Kappa-type opioid receptor (Homo sapiens, UniProt P41145)	pKi	=	7.92
Cc1cccc(C)c1-c1cnc2c(c1)C[C@@]1(OCCCc3ccccc3)[C@H]3Cc4ccc(O)c5c4[C@@]1(CCN3CC1CC1)[C@H]2O5	Kappa-type opioid receptor (Homo sapiens, UniProt P41145)	pKi	=	6.87
Oc1ccc2c3c1O[C@H]1c4ncc(-n5cccc5)cc4C[C@@]4(OCCCc5ccccc5)[C@@H](C2)N(CC2CC2)CC[C@]314	Kappa-type opioid receptor (Homo sapiens, UniProt P41145)	pKi	=	7.86
Cc1cc(-c2cnc3c(c2)C[C@@]2(OCCCc4ccccc4)[C@H]4Cc5ccc(O)c6c5[C@@]2(CCN4CC2CC2)[C@H]3O6)ccn1	Kappa-type opioid receptor (Homo sapiens, UniProt P41145)	pKi	>	9.29
Oc1cccc(-c2cnc3c(c2)C[C@@]2(OCCCc4ccccc4)[C@H]4Cc5ccc(O)c6c5[C@@]2(CCN4CC2CC2)[C@H]3O6)c1	Kappa-type opioid receptor (Homo sapiens, UniProt P41145)	pKi	=	7.74
Oc1ccc2c3c1O[C@H]1c4ncc(-c5ccc(F)cc5F)cc4C[C@@]4(OCCCc5ccccc5)[C@@H](C2)N(CC2CC2)CC[C@]314	Kappa-type opioid receptor (Homo sapiens, UniProt P41145)	pKi	=	7.44

* * *

Heads up, these compounds all have pKi values measured for Mu-type opioid receptor (Homo sapiens, UniProt P35372).
pKi: −log10 of the molar value.

smiles-representation	pKi
CN(C)Cc1ccccc1-c1cnc2c(c1)C[C@@]1(OCCCc3ccccc3)[C@H]3Cc4ccc(O)c5c4[C@@]1(CCN3CC1CC1)[C@H]2O5	7.25
Oc1ccc2c3c1O[C@H]1c4ncc(-c5ccc(Cl)cc5)cc4C[C@@]4(OCCOc5ccccc5)[C@@H](C2)N(CC2CC2)CC[C@]314	6.09
Oc1ccc2c3c1O[C@H]1c4ncc(-c5cccnc5)cc4C[C@@]4(OCCCc5ccccc5)[C@@H](C2)N(CC2CC2)CC[C@]314	7.08
CC(=O)Nc1cccc(-c2cnc3c(c2)C[C@@]2(OCCCc4ccccc4)[C@H]4Cc5ccc(O)c6c5[C@@]2(CCN4CC2CC2)[C@H]3O6)c1	6.47
CN(C)c1cccc(-c2cnc3c(c2)C[C@@]2(OCCCc4ccccc4)[C@H]4Cc5ccc(O)c6c5[C@@]2(CCN4CC2CC2)[C@H]3O6)c1	7.80
COc1cc(-c2cnc3c(c2)C[C@@]2(OCCCc4ccccc4)[C@H]4Cc5ccc(O)c6c5[C@@]2(CCN4CC2CC2)[C@H]3O6)ccn1	7.97
Oc1ccc2c3c1O[C@H]1c4ncc(-c5ccccn5)cc4C[C@@]4(OCCCc5ccccc5)[C@@H](C2)N(CC2CC2)CC[C@]314	6.98
CC(=O)Nc1ccc(-c2cnc3c(c2)C[C@@]2(OCCCc4ccccc4)[C@H]4Cc5ccc(O)c6c5[C@@]2(CCN4CC2CC2)[C@H]3O6)cc1	6.80
Oc1ccc2c3c1O[C@H]1c4ncc(-c5ccncn5)cc4C[C@@]4(OCCCc5ccccc5)[C@@H](C2)N(CC2CC2)CC[C@]314	7.18
Oc1ccc2c3c1O[C@H]1c4ncc(-c5ccc(F)c(F)c5)cc4C[C@@]4(OCCCc5ccccc5)[C@@H](C2)N(CC2CC2)CC[C@]314	6.43
CN(C)c1ccc(-c2cnc3c(c2)C[C@@]2(OCCCc4ccccc4)[C@H]4Cc5ccc(O)c6c5[C@@]2(CCN4CC2CC2)[C@H]3O6)cc1	8.33
Oc1ccc2c3c1O[C@H]1c4ncc(-c5ccc(Cl)cc5)cc4C[C@@]4(OCc5ccc6ccccc6n5)[C@@H](C2)N(CC2CC2)CC[C@]314	6.10
CN(C)c1ccccc1-c1cnc2c(c1)C[C@@]1(OCCCc3ccccc3)[C@H]3Cc4ccc(O)c5c4[C@@]1(CCN3CC1CC1)[C@H]2O5	8.16
Oc1ccc2c3c1O[C@H]1c4ncc(-c5ccccc5)cc4C[C@@]4(OCCCc5ccccc5)[C@@H](C2)N(CC2CC2)CC[C@]314	7.64
Cc1cccc(-c2cnc3c(c2)C[C@@]2(OCCCc4ccccc4)[C@H]4Cc5ccc(O)c6c5[C@@]2(CCN4CC2CC2)[C@H]3O6)c1	7.61
Oc1ccc2c3c1O[C@H]1c4ncc(-c5cncnc5)cc4C[C@@]4(OCCCc5ccccc5)[C@@H](C2)N(CC2CC2)CC[C@]314	7.32
Oc1ccc2c3c1O[C@H]1c4ncc(-c5ccccc5)cc4C[C@@]4(OCCCc5ccncc5)[C@@H](C2)N(CC2CC2)CC[C@]314	8.42
Cc1ccccc1-c1cnc2c(c1)C[C@@]1(OCCCc3ccccc3)[C@H]3Cc4ccc(O)c5c4[C@@]1(CCN3CC1CC1)[C@H]2O5	6.63
Oc1ccc2c3c1O[C@H]1c4ncc(-c5ccc(F)cc5F)cc4C[C@@]4(OCCCc5ccccc5)[C@@H](C2)N(CC2CC2)CC[C@]314	6.77
Oc1ccc2c3c1O[C@H]1c4ncc(-c5ccccc5C5CC5)cc4C[C@@]4(OCCCc5ccccc5)[C@@H](C2)N(CC2CC2)CC[C@]314	6.87
Oc1ccc2c3c1O[C@H]1c4ncc(-c5ccccc5)cc4C[C@@]4(OCCCCc5ccccc5)[C@@H](C2)N(CC2CC2)CC[C@]314	7.04
COc1ccccc1-c1cnc2c(c1)C[C@@]1(OCCCc3ccccc3)[C@H]3Cc4ccc(O)c5c4[C@@]1(CCN3CC1CC1)[C@H]2O5	7.21
Cc1ccc(-c2cnc3c(c2)C[C@@]2(OCCCc4ccccc4)[C@H]4Cc5ccc(O)c6c5[C@@]2(CCN4CC2CC2)[C@H]3O6)cc1	6.72
Oc1ccc2c3c1O[C@H]1c4ncc(-c5ccncc5)cc4C[C@@]4(OCCCc5ccccc5)[C@@H](C2)N(CC2CC2)CC[C@]314	7.33
Oc1ccc2c3c1O[C@H]1c4ncc(-c5ccc(F)cc5)cc4C[C@@]4(OCCCc5ccccc5)[C@@H](C2)N(CC2CC2)CC[C@]314	8.63
